Sourced from patent US7666996B2

# Test system: Non-Obese Diabetic (NOD) mice
# Protocol: Intraperitoneal Glucose Tolerance Test (IPGTT) in NOD mice
# Assay type: in vivo
# Cond: individual healthy NOD mice, 25 weeks after peptides; 60 min after i.p. glucose 1 g/kg
Endpoint Label: IPGT TEST 60 min. post load plasma glucose (mg/dL)
Form entry: value (mg/dL) — number only.

Study these solved cases before continuing.
[[record]]
sequence_text = "RPKHPIKHQG [1a, synthetic peptide, N-terminal 10 amino acids of αS1 casein]"
measurement = 106

[[record]]
sequence_text = "RPKHPIKHQGLPQEVLNENLLRF [synthetic peptide, N-terminal 23 amino acids of αS1 casein]"
measurement = 143


Task: Form: Entry = RPKHPIKHQGLPQEVLNENLL [synthetic peptide, N-terminal 21 amino acids of αS1 casein] | System = Non-Obese Diabetic (NOD) mice | IPGT TEST 60 min. post load plasma glucose = ____
Result: 138

Task: Form: Entry = RPKHPIKH [Y, synthetic peptide, N-terminal 8 amino acids of αS1 casein] | System = Non-Obese Diabetic (NOD) mice | IPGT TEST 60 min. post load plasma glucose = ____
Result: 138
